Values compiled from paper PMC9482650.

# assayedTarget: O60759
# procedureDetails: holdup assay
# Design: key: below the threshold = too weak to quantify, mostly under pKd 3.1 to 4
# testParameters: plain residues with an end cap or a label only (N-terminal biotin on a linker: ttds)
measure: pKd

SSIDLWETAL [SLC15A5, A6NIM6] | below the threshold
PSRDRKETSI [RALBP1, Q15311] | below the threshold
KLVIKTETTV [RASSF6, Q6ZTQ3] | below the threshold
SHSSKGETAV [FZD7, O75084] | below the threshold

Could you now consider this next binder?
Task: So what's the measured pKd for this one? PPRQRSETQV [HPV82-E6, Q9IR59]
Output: below the threshold
